tested on: Mus musculus; assay: Antinociceptive activity was assessed using the mouse abdominal irritant test (MAIT), at a dose of 150 uM/Kg (po); assay type: functional, Abdomen
QUANTITY KIND: Inhibition (%)
Write down the numeric answer in % and omit the unit.

Provide only the value of recorded Inhibition for CCN(CC)C(=O)c1ccc(/C(=C2/C[C@H]3CC[C@@H](C2)N3C)c2ccccc2)cc1
90

Given CCN(CC)C(=O)c1ccc(C(=C2CC3CCC(C2)N3CCCc2ccccc2)c2ccccc2)cc1 , respond with its Inhibition.
13.3

Indicate the recorded Inhibition value for this compound: C=C(C)CN(CC)C(=O)c1ccc(/C(=C2\C[C@H]3CC[C@@H](C2)N3CCc2ccccc2)c2ccccc2)cc1
33

Determine from records and report Inhibition for CCN(CC)C(=O)c1ccc(C(=C2CC3CCC(C2)N3Cc2ccc3c(c2)OCO3)c2ccccc2)cc1
40

Name the recorded Inhibition of the item CCN(CC)C(=O)c1ccc(/C(=C2\C[C@H]3CC[C@@H](C2)N3)c2ccccc2)cc1 in your answer.
86.7

Find the measured Inhibition of C=CCN1[C@@H]2CC[C@H]1C/C(=C(/c1ccccc1)c1ccc(C(=O)N(CC)CC)cc1)C2 and report it.
100

Report measured Inhibition; entry is CCN(CC)C(=O)c1ccc(C(=C2CC3CCC(C2)N3)c2ccc(O)cc2)cc1
26.7

Report measured Inhibition; entry is CCN(CC)C(=O)c1ccc(/C(=C2\C[C@H]3CC[C@@H](C2)N3CCc2ccccc2)c2ccccc2)cc1
100

Tell me measured Inhibition for C=CCN1[C@@H]2CC[C@H]1C/C(=C(\c1ccccc1)c1ccc(C(=O)N(CC)CC)cc1)C2 please.
100

Quick one: give measured Inhibition for CCN(CC)C(=O)c1ccc(/C(=C2/C[C@H]3CC[C@@H](C2)N3)c2ccccc2)cc1
86.7
